Each entry below carries its reported protein stability index.
B1: SOAT1 (parent)
chain: PSNGRIDIKQLIAKKIKLTAEAEE

- Variants of: B1
- PROCEDURE_DETAILS: protein stability index of a GFP-peptide fusion (GPS, HEK-293T) (PSI 1-6); higher = more stable;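 further: lentivirally expressed fusions sorted by FACS into six bins by GFP to DsRed ratio, PSI derived from sequencing read proportions per bin multiplied by bin number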
- EXPERIMENTAL_CONDITIONS: c terminus: a fixed tail appended
Just the number, please, no unit after it.

For orientation, consider the following solved cases.
Query: Param item = S2F ; retrieve measured protein stability index.
Reply: 2.94

Query: Likewise for E23N ?
Reply: 2.93

Query: Param item: E24Q
Reply: 2.95

Query: Follow-up item: K9H
Reply: 3.07

Query: Repeat for the following variant: A13T
Reply: 3.08

Query: Same again, this time with K14W
Reply: 3.07

Query: Query K17C next
Reply: 3.05

# next variant below
Query: What does the record list as protein stability index for P1W ?
Reply: 2.92
